Ref: BigSolDB 2.1

test-context: in isobutanol, 313.15 K
measurement-name: solubility (mole fraction)
Lab note: record the figure alone, no unit after it.

Q: Quick one: solubility (mole fraction) for CC(=O)N[C@@H](C)C(=O)O ?
A: 0.12

---

test-context: in n-butanol, 293.15 K
measurement-name: solubility (mole fraction)
Lab note: record the figure alone, no unit after it.

Q: Quick one: solubility (mole fraction) for CC(=O)N[C@@H](C)C(=O)O ?
A: 0.0784

---

test-context: in isopentanol, 288.15 K
measurement-name: solubility (mole fraction)

Q: Quick one: solubility (mole fraction) for CC(=O)N[C@@H](C)C(=O)O ?
A: 0.0563

---

test-context: in n-pentanol, 288.15 K
measurement-name: solubility (mole fraction)

Q: Quick one: solubility (mole fraction) for CC(=O)N[C@@H](C)C(=O)O ?
A: 0.0546

---

test-context: in n-pentanol, 308.15 K
measurement-name: solubility (mole fraction)
Lab note: record the figure alone, no unit after it.

Q: Quick one: solubility (mole fraction) for CC(=O)N[C@@H](C)C(=O)O ?
A: 0.0915

---

test-context: in ethanol, 298.15 K
measurement-name: solubility (mole fraction)
Lab note: record the figure alone, no unit after it.

Q: Quick one: solubility (mole fraction) for CC(=O)N[C@@H](C)C(=O)O ?
A: 0.156

---

test-context: in isopropanol, 298.15 K
measurement-name: solubility (mole fraction)
Lab note: record the figure alone, no unit after it.

Q: Quick one: solubility (mole fraction) for CC(=O)N[C@@H](C)C(=O)O ?
A: 0.113

---

test-context: in 2-butanone, 323.15 K
measurement-name: solubility (mole fraction)
Lab note: record the figure alone, no unit after it.

Q: Quick one: solubility (mole fraction) for CC(=O)N[C@@H](C)C(=O)O ?
A: 0.0437

---

test-context: in n-butanol, 303.15 K
measurement-name: solubility (mole fraction)
Lab note: record the figure alone, no unit after it.

Q: Quick one: solubility (mole fraction) for CC(=O)N[C@@H](C)C(=O)O ?
A: 0.0982

---

test-context: in isopropanol, 313.15 K
measurement-name: solubility (mole fraction)
Lab note: record the figure alone, no unit after it.

Q: Quick one: solubility (mole fraction) for CC(=O)N[C@@H](C)C(=O)O ?
A: 0.162

---

test-context: in acetonitrile, 318.15 K
measurement-name: solubility (mole fraction)

Q: Quick one: solubility (mole fraction) for CC(=O)N[C@@H](C)C(=O)O ?
A: 0.0312

---

test-context: in acetonitrile, 308.15 K
measurement-name: solubility (mole fraction)
Lab note: record the figure alone, no unit after it.

Q: Quick one: solubility (mole fraction) for CC(=O)N[C@@H](C)C(=O)O ?
A: 0.0177

---

test-context: in acetonitrile, 313.15 K
measurement-name: solubility (mole fraction)
Lab note: record the figure alone, no unit after it.

Q: Quick one: solubility (mole fraction) for CC(=O)N[C@@H](C)C(=O)O ?
A: 0.0226

---

test-context: in dimethyl carbonate, 308.15 K
measurement-name: solubility (mole fraction)

Q: Quick one: solubility (mole fraction) for CC(=O)N[C@@H](C)C(=O)O ?
A: 0.00543

---

test-context: in n-butyl acetate, 313.15 K
measurement-name: solubility (mole fraction)
Lab note: record the figure alone, no unit after it.

Q: Quick one: solubility (mole fraction) for CC(=O)N[C@@H](C)C(=O)O ?
A: 0.00654
